Provenance of the data: patent US20240317847A1

We begin with a simple list: items and their reported pKd.
Target: T1, human IL-11 (Invigate, e.g., lot #C121021-19) (human, UniProt P20809 22-199)
T1 construct: Bought protein; also called hIL-11; hIL11
T1 sequence: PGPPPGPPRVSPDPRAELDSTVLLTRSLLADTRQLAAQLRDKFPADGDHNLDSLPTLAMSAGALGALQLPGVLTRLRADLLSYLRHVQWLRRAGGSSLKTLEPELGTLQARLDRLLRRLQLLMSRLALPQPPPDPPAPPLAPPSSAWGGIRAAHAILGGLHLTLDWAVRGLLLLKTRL
Assay: SPR, Biacore 8K; antibody captured on anti-human IgG Fc chip, IL-11 analyte 0-50 nM, 1:1 fit
The quantity pKd is defined as the negative base-10 logarithm of the molar concentration.

The examples below pair each entry with its known result.
# Binder, pKd
measured = [
    ("TPP-31302 (antibody, human IgG4, V domains shown, consecutive numbering; also called VH-D54E/VL-N97S) VH: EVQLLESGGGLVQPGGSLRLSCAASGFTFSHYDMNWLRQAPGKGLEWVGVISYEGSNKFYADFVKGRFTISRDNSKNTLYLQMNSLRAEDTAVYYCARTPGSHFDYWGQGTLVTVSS VL: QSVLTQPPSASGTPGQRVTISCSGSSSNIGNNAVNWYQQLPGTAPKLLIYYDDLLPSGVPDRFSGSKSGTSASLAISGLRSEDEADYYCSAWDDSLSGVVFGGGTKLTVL", 8.42),
    ("TPP-31304 (antibody, human IgG4, V domains shown, consecutive numbering; also called VH-G55A) VH: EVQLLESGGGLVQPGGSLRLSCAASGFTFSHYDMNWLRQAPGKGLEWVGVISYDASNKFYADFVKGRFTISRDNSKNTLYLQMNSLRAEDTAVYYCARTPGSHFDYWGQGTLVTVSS VL: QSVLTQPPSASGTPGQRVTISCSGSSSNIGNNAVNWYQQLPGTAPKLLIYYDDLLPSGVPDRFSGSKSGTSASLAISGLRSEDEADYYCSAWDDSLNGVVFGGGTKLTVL", 7.82),
]

Shifting focus to the binder that follows.
Find the measured pKd of TPP-31295 (antibody, human IgG4, V domains shown, consecutive numbering; also called VH-F59Y) VH: EVQLLESGGGLVQPGGSLRLSCAASGFTFSHYDMNWLRQAPGKGLEWVGVISYDGSNKYYADFVKGRFTISRDNSKNTLYLQMNSLRAEDTAVYYCARTPGSHFDYWGQGTLVTVSS VL: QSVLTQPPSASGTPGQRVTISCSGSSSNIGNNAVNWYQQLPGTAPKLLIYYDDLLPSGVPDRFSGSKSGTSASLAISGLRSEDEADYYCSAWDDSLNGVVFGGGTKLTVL and report it.
7.70
